- target: c-Src SH2;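 note: peptide library displayed on the E. coli surface as eCPX fusions, selected cells deep-sequenced, score is each peptide's frequency after selection divided by its frequency in the input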
- protocol notes: SH2 binding enrichment of the phosphorylated peptide, bacterial display (enrichment ratio); higher = better substrate or ligand; peptides without Tyr show the background
Categories are assigned from the measured SH2 binding enrichment using these intervals: low bin (below 0.5), mid bin (0.5 to below 0.8), high bin (0.8 or more)

Reference set (3 entries):
[[record]]
polymer_sequence = "RFVTRSIFNRE [HLA-DQB1_Y62_Y62S_YF]"
label = "low bin"

[[record]]
polymer_sequence = "CTTIHYNYMCD [TP53_Y234_N239D]"
label = "high bin"

[[record]]
polymer_sequence = "SIRFNYLLDVL [FGFR4_Y237_YF]"
label = "high bin"


Classify this sequence: TVFENYVADIK [RHOA_Y42_E47K]
mid bin

GET /class?item= SVTCTYSPALS [TP53_Y126_N131S]
low bin

Category of VKFLGYPPPEI [KDR_Y357_A352V_YF] :
mid bin

Which band does QDIMAYRGREV [BCL6_Y157] fall in?
low bin

For this sequence, which bin applies? MSRYIYSTDYY [NTRK1_Y676_D674Y]
high bin

Please report the category associated with SSFDIYHLSRE [KIR3DL2_Y253_YF] , nothing else.
mid bin

State the band of GGDQPYSGAGD [TYRO3_Y828_R824G]
mid bin

Where would VFSIDYFRVGG [NTRK2_Y706_T704I_YF] land among the classes by reported SH2 binding enrichment?
high bin
